The measured values listed here are drawn from patent US20090029949A1.

biological target: S1P1 mutant V3.40L (Homo sapiens, UniProt P21453, V132L); assay: [35S]GTPγS binding, S1P1 V3.40L; conditions: S1P-induced, S1P1 V3.40L in RH7777 cells
Sequence (P21453 whole entry V132L): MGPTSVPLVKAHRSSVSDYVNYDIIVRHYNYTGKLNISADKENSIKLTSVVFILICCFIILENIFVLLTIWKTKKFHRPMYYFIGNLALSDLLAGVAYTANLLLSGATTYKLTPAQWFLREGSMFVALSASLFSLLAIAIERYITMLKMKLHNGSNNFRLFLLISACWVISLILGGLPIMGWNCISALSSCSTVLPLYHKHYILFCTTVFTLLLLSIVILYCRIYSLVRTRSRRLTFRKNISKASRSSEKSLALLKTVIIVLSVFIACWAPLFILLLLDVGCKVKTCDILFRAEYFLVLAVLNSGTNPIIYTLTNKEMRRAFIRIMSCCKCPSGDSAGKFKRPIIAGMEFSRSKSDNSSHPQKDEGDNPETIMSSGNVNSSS
METRIC_NAME: EC50 (nM)
Kindly answer with a numeric value in nM, unit omitted.

Request the reported EC50 associated with CCCCCCCCCCCCC/C=C/[C@@H](O)[C@@H](N)COP(=O)(O)O [S1P, Sphingosine 1-phosphate]
7

###

biological target: S1P1 mutant C5.44D (Homo sapiens, UniProt P21453, C206D); assay: [35S]GTPγS binding, S1P1 C5.44D; conditions: S1P-induced, S1P1 C5.44D in RH7777 cells
METRIC_NAME: pEC50
Just the number, please; pEC50 means minus log10 of the concentration in mol/L.

Request the reported pEC50 associated with CCCCCCCCCCCCC/C=C/[C@@H](O)[C@@H](N)COP(=O)(O)O [S1P, Sphingosine 1-phosphate]
7.10

###

Biological target: S1P1 mutant T5.49S (Homo sapiens, UniProt P21453, T211S)
Sequence (P21453 whole entry T211S): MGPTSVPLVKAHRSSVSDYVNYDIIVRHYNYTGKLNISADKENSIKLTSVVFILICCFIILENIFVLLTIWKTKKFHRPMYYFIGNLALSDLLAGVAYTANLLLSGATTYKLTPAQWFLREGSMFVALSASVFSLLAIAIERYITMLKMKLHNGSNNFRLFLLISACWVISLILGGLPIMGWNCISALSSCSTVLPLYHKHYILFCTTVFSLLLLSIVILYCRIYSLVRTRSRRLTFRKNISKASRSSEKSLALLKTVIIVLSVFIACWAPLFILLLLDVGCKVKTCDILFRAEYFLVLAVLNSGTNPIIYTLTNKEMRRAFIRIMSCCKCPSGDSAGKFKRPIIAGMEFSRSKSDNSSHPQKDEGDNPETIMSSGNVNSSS
Assay: [35S]GTPγS binding, S1P1 T5.49S
Settings: S1P-induced, S1P1 T5.49S in RH7777 cells
Method: RH7777 and HEK-293 cells (ATCC, Manassas, Va.) were maintained in Dulbecco's modified minimal essential medium (DMEM) containing 10% fetal bovine serum (Hyclone, Logan, Utah). Cells (2×10^6) were transfected with 2 μg of plasmid DNA with Effectene (Qiagen, Valencia, Calif.) according to the manufacturer's instructions, for 24 h. Before ligand binding and receptor activation assays, the cells were washed twice with serum-free DMEM and serum-starved for at least 6 h. […]
METRIC_NAME: EC50 (nM)
Kindly answer with a numeric value in nM, unit omitted.

Request the reported EC50 associated with CCCCCCCCCCCCC/C=C/[C@@H](O)[C@@H](N)COP(=O)(O)O [S1P, Sphingosine 1-phosphate]
6.6

###

molecular target: S1P1 mutant T5.45G (Homo sapiens, UniProt P21453, T207G); assay: [35S]GTPγS binding, S1P1 T5.45G; conditions: S1P-induced, S1P1 T5.45G in RH7777 cells
METRIC_NAME: pEC50
Just the number, please; pEC50 means minus log10 of the concentration in mol/L.

Please provide the recorded pEC50 for CCCCCCCCCCCCC/C=C/[C@@H](O)[C@@H](N)COP(=O)(O)O [S1P, Sphingosine 1-phosphate] , tested on S1P1 mutant T5.45G (Homo sapiens, UniProt P21453, T207G).
7.51

###

target: LPA3 (Homo sapiens); experiment: LPA agonist/antagonist activity at LPA3 (Table 2); type: cell-based; conditions: 200 nM LPA
Peptide text beside a SMILES is read from it. * marks the point of attachment. Dnp = O=[N+]([O-])c1ccc(*)c([N+](=O)[O-])c1
Threshold check on LPA3 Inhibition of 200 nM LPA response: at or above 60% gives criterion met, strictly below gives criterion not met.

# count of solved cases: 2
| COMPOUND | TARGET_OF_ASSAY | GROUP |
| --- | --- | --- |
| NCC(=O)NC(CSc1ccc([N+](=O)[O-])cc1[N+](=O)[O-])C(=O)NC(CCC(=O)O)C(=O)O (centres unmarked) [NSC 161613] (H-Gly-Cys(Dnp)-Glu-OH; configuration not given here) | LPA3 (Homo sapiens) | criterion met |
| COc1ccc(C(=O)CCCC(=O)O)c(OC)c1O | LPA3 (Homo sapiens) | criterion not met |

# ---- query compound ----
Test whether the compound O=C(O)/C=C/C(=O)Nc1cccc(NC(=O)/C=C/C(=O)O)c1C(=O)O records LPA3 Inhibition of 200 nM LPA response of 60% or higher.
criterion met

###

target: S1P1 mutant I5.41F (Homo sapiens, UniProt P21453, I203F); assay: [35S]GTPγS binding, S1P1 I5.41F; details: S1P-induced, S1P1 I5.41F in RH7777 cells
Sequence (P21453 whole entry I203F): as the sequence (P21453 whole entry V132L) above, with L132V, I203F counted along it
METRIC_NAME: pEC50
Just the number, please; pEC50 means minus log10 of the concentration in mol/L.

Request the reported pEC50 associated with CCCCCCCCCCCCC/C=C/[C@@H](O)[C@@H](N)COP(=O)(O)O [S1P, Sphingosine 1-phosphate]
7.72

###

Consider the following pKi values measured on LPA3 (Homo sapiens, UniProt Q9UBY5).
Sequence (Q9UBY5 whole entry, species assumed): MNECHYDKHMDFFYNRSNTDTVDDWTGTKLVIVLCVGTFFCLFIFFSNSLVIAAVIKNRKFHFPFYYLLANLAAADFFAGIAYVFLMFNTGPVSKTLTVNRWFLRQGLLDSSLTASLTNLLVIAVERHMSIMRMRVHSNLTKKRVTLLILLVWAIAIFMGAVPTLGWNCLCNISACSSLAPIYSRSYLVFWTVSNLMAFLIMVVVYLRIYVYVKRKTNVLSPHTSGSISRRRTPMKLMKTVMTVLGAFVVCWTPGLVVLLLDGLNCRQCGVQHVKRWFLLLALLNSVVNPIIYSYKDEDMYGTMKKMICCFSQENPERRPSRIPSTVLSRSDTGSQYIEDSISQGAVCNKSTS
Just the number, please; pKi means minus log10 of the concentration in mol/L.

| COMPOUND | pKi |
| --- | --- |
| Cn1c(=O)c2c(nc(C(=N)SCC(=O)O)n2C)n(C)c1=O [NSC 62586] | 7.80 |

Alright, here's another compound for you.
Please provide the recorded pKi for Cc1cc2nc3c(=O)[nH]c(=O)nc-3n(CCOC(=O)CCC(=O)O)c2cc1C [NSC 3066] , tested on LPA3 (Homo sapiens, UniProt Q9UBY5).
7.35

###

biological target: S1P1 mutant L6.41E (Homo sapiens, UniProt P21453, L262E); test: [35S]GTPγS binding, S1P1 L6.41E; details: S1P-induced, S1P1 L6.41E in RH7777 cells
Sequence (P21453 whole entry L262E): as the sequence (P21453 whole entry T211S) above, with S211T, L262E counted along it
METRIC_NAME: pEC50
Just the number, please; pEC50 means minus log10 of the concentration in mol/L.

Request the reported pEC50 associated with CCCCCCCCCCCCC/C=C/[C@@H](O)[C@@H](N)COP(=O)(O)O [S1P, Sphingosine 1-phosphate]
8.39

###

target: S1P1 mutant V6.40T (Homo sapiens, UniProt P21453, V261T); assay: [35S]GTPγS binding, S1P1 V6.40T; details: S1P-induced, S1P1 V6.40T in RH7777 cells
METRIC_NAME: EC50 (nM)
Kindly answer with a numeric value in nM, unit omitted.

Request the reported EC50 associated with CCCCCCCCCCCCC/C=C/[C@@H](O)[C@@H](N)COP(=O)(O)O [S1P, Sphingosine 1-phosphate]
57.3

###

target: S1P1 mutant L5.51G (Homo sapiens, UniProt P21453, L213G); test: [35S]GTPγS binding, S1P1 L5.51G; settings: S1P-induced, S1P1 L5.51G in RH7777 cells
Sequence (P21453 whole entry L213G): as the sequence (P21453 whole entry V132L) above, with L132V, L213G counted along it
METRIC_NAME: pEC50
Just the number, please; pEC50 means minus log10 of the concentration in mol/L.

Please provide the recorded pEC50 for CCCCCCCCCCCCC/C=C/[C@@H](O)[C@@H](N)COP(=O)(O)O [S1P, Sphingosine 1-phosphate] , tested on S1P1 mutant L5.51G (Homo sapiens, UniProt P21453, L213G).
8.59

###

target: S1P1 mutant F5.48G (Homo sapiens, UniProt P21453, F210G); test: [32P]S1P competition binding, HEK-293 cells, F5.48G; conditions: S1P1 F5.48G, competition with cold S1P, read-out: KD + s.d.
Sequence (P21453 whole entry F210G): as the sequence (P21453 whole entry T211S) above, with F210G, S211T counted along it
METRIC_NAME: pKd
Just the number, please; pKd means minus log10 of the concentration in mol/L.

Request the reported pKd associated with CCCCCCCCCCCCC/C=C/[C@@H](O)[C@@H](N)COP(=O)(O)O [S1P, Sphingosine 1-phosphate]
7.69

###

target: LPA3 (Homo sapiens); experiment: LPA agonist/antagonist activity at LPA3 (Table 2)
pIC50: −log10 of the molar value. Peptide text beside a SMILES is read from it. * marks the point of attachment. Dnp = O=[N+]([O-])c1ccc(*)c([N+](=O)[O-])c1
Threshold check on pIC50: at or above 7 gives yes, strictly below gives no.

# count of solved cases: 5
| COMPOUND | TARGET_OF_ASSAY | GROUP |
| --- | --- | --- |
| COc1ccc(C(=O)CCCC(=O)O)c(OC)c1O [NSC 10167] | LPA3 (Homo sapiens) | no |
| O=C(O)/C=C/C(=O)Nc1cccc(NC(=O)/C=C/C(=O)O)c1C(=O)O [NSC 47091] | LPA3 (Homo sapiens) | yes |
| NCC(=O)NC(CSc1ccc([N+](=O)[O-])cc1[N+](=O)[O-])C(=O)NC(CCC(=O)O)C(=O)O (centres unmarked) [NSC 161613] (H-Gly-Cys(Dnp)-Glu-OH; configuration not given here) | LPA3 (Homo sapiens) | yes |
| COC(=O)C(CCC(=O)O)N1C(=O)c2ccccc2C1=O (centres unmarked) [NSC 16540] | LPA3 (Homo sapiens) | no |
| O=C(O)CCC(NC(=O)OCc1ccccc1)C(=O)NC(Cc1ccccc1)C(=O)O (centres unmarked) [NSC 18760] | LPA3 (Homo sapiens) | yes |

Test whether the compound Cn1c(=O)c2c(nc(C(=N)SCC(=O)O)n2C)n(C)c1=O [NSC 62586] records pIC50 of 7 or higher.
yes

Test whether the compound CCCC(=O)Nc1ncnc2c1ncn2C1OC2COP(=O)(O)OC2C1OC(=O)CCC (centres unmarked) [NSC 143108] records pIC50 of 7 or higher.
no
